- assayed system: T1, AFP158/HLA-A*02:01 complex (human)
- T1 construct: flowed over the chip in SPR; also called AFP158 pro
- assay notes: SPR, KD ratio to AS170036 VL1VH1;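 further: crude scFv captured on a sensor chip, peptide–HLA complex passed over at several concentrations, association then buffer dissociation, KD derived from on- and off-rates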
property: Affinity increase (fold)
One number for each entry, in fold.

# binder, measurement unit, Affinity increase
data = [
    ("LD97L (scFv, AS170036 VL1VH1 scFv mutein) scFv: QSALTQPRSVSGSPGQSVTISCAGTSSDVGSENYVSWYQQHPGKAPKLMIYQVNKRASGVPDRFSGSKSGNTASLTISGLQAEDEADYYCASYRSSLHNIVFGGGTKLTVLGGGGSGGGGSGGGGSEVQLVESGGGLVQPGGSLRLSCAASGFTFSSYAMSWVRQAPGKGLEWVSTINSGTGSPYYADSVKGRFTISRDNSKNTLYLQMNSLRAEDTAVYYCAKNFFDGSWFLGPPAMDYWGQGTLVTVSSHHHHHH", "fold", 0.4),
]

Prompt: Fill in reported Affinity increase for this entry: LD97S (scFv, AS170036 VL1VH1 scFv mutein) scFv: QSALTQPRSVSGSPGQSVTISCAGTSSDVGSENYVSWYQQHPGKAPKLMIYQVNKRASGVPDRFSGSKSGNTASLTISGLQAEDEADYYCASYRSSSHNIVFGGGTKLTVLGGGGSGGGGSGGGGSEVQLVESGGGLVQPGGSLRLSCAASGFTFSSYAMSWVRQAPGKGLEWVSTINSGTGSPYYADSVKGRFTISRDNSKNTLYLQMNSLRAEDTAVYYCAKNFFDGSWFLGPPAMDYWGQGTLVTVSSHHHHHH
Response: 0.6
